Biological target: human ether-à-go-go-related gene (hERG) potassium channel (human);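 also: peak tail current of the secondary pulse compared with the same well before compound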
Experiment: primary screen, population patch clamp on CHO cells stably expressing hERG; higher = less effect of the substance
Screen size: about 310,000 compounds; about 14,000 (4.5%) showed an effect of 50% or more. The effect is printed as a negative number. The sample as a whole holds a higher share of strong results than the screen did.
property label: hERG current change (%, negative = inhibition) at 10uM (%)
// note: answer is a bare numeric in %

Before answering, review these 3 worked examples.
COc1ccc(C2/C(=C(\O)c3ccc4c(c3)OCCO4)C(=O)C(=O)N2CCCN(C)C)cc1 (stereo not shown) : 17
O=C(Nc1ccccc1)c1ccncc1 : 1.31
CCOC(=O)C1CCN(c2ncnc3c2cnn3-c2ccc(OC)cc2)CC1 : -16.2

Please fill in: hERG current change (%, negative = inhibition) at 10uM reported for O=C(CN1C(=O)c2ccccc2S1(=O)=O)N1CCN(Cc2ccc3c(c2)OCO3)CC1 = -12.8

Reported hERG current change (%, negative = inhibition) at 10uM ( Cc1ccc(C)c(CN2CCCN(C(=O)Cn3ncc4c3-c3ccccc3OC4)C2)c1 ) = -2.82

Record CC(OC(=O)Cc1c(F)cccc1Cl)C(=O)NC1(C#N)CCCCC1 (stereo not shown) . Reported hERG current change (%, negative = inhibition) at 10uM: -22.4

Form field hERG current change (%, negative = inhibition) at 10uM, entry O=C(Cn1ncc2c1-c1ccccc1OC2)N1CCN(Cc2ccc3c(c2)OCO3)CC1 : -61.3

Summary for this compound, CNc1nc(SC(C)C(=O)Nc2ccc(Cl)c(Cl)c2)nc(N2CCOCC2)n1 (stereo not shown) : hERG current change (%, negative = inhibition) at 10uM is 19.6

###

Target: human ether-à-go-go-related gene (hERG) potassium channel (human, UniProt Q12809);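 also: peak tail current of the secondary pulse compared with the same well before compound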
Sequence (Q12809 whole entry, looked up): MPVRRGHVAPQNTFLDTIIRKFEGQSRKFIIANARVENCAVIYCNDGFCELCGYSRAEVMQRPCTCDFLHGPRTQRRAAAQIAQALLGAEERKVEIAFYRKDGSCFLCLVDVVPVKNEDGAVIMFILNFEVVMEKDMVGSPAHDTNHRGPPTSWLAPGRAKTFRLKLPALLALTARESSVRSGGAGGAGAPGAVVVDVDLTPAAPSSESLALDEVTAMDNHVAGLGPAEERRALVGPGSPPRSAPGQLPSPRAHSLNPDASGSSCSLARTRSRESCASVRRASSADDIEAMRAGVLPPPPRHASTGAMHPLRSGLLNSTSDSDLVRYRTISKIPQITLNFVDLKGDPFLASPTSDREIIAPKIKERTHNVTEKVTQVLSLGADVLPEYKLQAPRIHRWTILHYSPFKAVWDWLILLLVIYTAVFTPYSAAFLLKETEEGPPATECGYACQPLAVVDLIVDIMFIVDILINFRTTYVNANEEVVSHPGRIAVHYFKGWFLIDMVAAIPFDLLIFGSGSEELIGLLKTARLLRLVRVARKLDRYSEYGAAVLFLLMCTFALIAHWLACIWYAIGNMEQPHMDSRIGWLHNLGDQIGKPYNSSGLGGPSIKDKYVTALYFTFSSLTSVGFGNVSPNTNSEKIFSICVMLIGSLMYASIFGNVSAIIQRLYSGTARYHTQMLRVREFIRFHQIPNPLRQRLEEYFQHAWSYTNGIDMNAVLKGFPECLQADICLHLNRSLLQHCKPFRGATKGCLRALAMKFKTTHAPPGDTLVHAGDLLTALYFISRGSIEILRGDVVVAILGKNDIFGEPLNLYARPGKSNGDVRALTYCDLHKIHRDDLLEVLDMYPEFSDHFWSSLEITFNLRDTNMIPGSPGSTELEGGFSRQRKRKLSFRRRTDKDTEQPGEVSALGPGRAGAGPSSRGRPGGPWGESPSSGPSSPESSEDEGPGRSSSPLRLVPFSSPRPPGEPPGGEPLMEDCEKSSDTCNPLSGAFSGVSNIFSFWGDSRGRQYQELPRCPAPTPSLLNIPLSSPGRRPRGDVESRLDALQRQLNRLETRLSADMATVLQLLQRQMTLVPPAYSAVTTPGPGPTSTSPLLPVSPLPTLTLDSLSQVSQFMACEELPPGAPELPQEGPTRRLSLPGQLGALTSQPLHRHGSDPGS
Experiment: primary screen, population patch clamp on CHO cells stably expressing hERG; higher = less effect of the substance
Hit rate of the full screen: of about 310,000 compounds, about 14,000 (4.5%) showed an effect of 50% or more. Effects have a minus sign here. The sample as a whole holds a higher share of strong results than the screen did.
property label: hERG current change (%, negative = inhibition) at 10uM (%)
Entry rule: numbers only, all in %.

CCN1CCN(c2cc(C)c3cc(NC(=O)Cc4ccc(OC)c(OC)c4)ccc3n2)CC1 : -10.5
CCCNc1c(NS(=O)(=O)c2cccc(C#N)c2)c(=O)oc2ccccc12 : -58.7
c1ccc(-c2nc(NCCCN3CCOCC3)c3ccccc3n2)cc1 : -34.6
CCCNc1c(NS(=O)(=O)c2ccc3c(c2)CCCC3)c(=O)oc2ccccc12 : 8.8
c1csc(-c2nc(NCCCN3CCOCC3)c3ccccc3n2)c1 : -50.7
CCN1CCN(c2cc(C)c3cc(NC(=O)c4ccc(Br)o4)ccc3n2)CC1 : -56
Nc1ccc(S(=O)(=O)Nc2ccc(C(=O)c3ccccc3)cc2)cc1 : -2.92
N#Cc1c(N)oc(-c2ccco2)c1-c1ccco1 : 1.98

Summary line: Clc1ccc(-c2nc(NCCCN3CCOCC3)c3ccccc3n2)cc1 , human ether-à-go-go-related gene (hERG) potassium channel (human, UniProt Q12809), reported hERG current change (%, negative = inhibition) at 10uM = -18.9

The observed hERG current change (%, negative = inhibition) at 10uM for O=C(CSc1nc2ccccc2[nH]1)c1ccco1 when tested with human ether-à-go-go-related gene (hERG) potassium channel (human, UniProt Q12809) stands at -4.74
